assay.system: macaque CD45RC (cynomolgus macaque)
protocol.description: flow cytometry, cynomolgus macaque PBMC, CD3+ cells (p-1488); 10 µg/ml (p-1486)
recorded.endpoint: % of cells CD45RC+ (%)
Write the number in % without appending the unit.

Solved entries:
Anti-45RC Variant A (antibody, human IgG1, kappa, V domains shown) VH: QVQLVQSGAEVKKPGASVKVSCKASGYTFTNYYIGWVRQAPGQGLEWIGDIFPGGDYANSNEKFKGRVTLTADTSISTAYMELSRLRSDDTVVYYCVRRNFDYWGQGTLVTVSS VL: DIQLTQSPSFLSASVGDRVTITCSASSSVSYMHWFQQKPGKAPKLWIYNTSNLPSGVPSRFSGSGSGTEYTLTISSLQPEDFATYYCQQRSSYPLTFGGGTKVEIKR ... 17.2
ABIS-45RC (antibody, mouse IgG1, kappa, V domains shown, the variable domains are the same; also called murine ABIS-45RC; murine anti-hCD45RC antibody of the invention) VH: QVQLQQSGAELVRPGTSVKMSCKAAGYTFTNYYIGWVKQRPGHGLEWIGDIFPGGDYANSNEKFKGKATLTADTSSSTAYMQLSSLTSEDSAIYYCVRRNFDYWGQGTTLTVSS VL: QIVLTQSPTIMSASPGEKVTITCSASSSVSYMHWFQQKTGTSPRLWIYNTSNLPSGVPARFSGSGSGTSYSLTISRMEAEDAATYYCQQRSSYPLTFGAGTKLELKR ... 26.1
Anti-45RC Variant A1 (antibody, human IgG1, kappa, V domains shown) VH: QVQLVQSGAEVKKPGASVKVSCKASGYTFTNYYIGWVRQAPGQGLEWIGDIFPGGDYTNYAEKFQGRVTLTADTSISTAYMELSRLRSDDTVVYYCVRRNFDYWGQGTLVTVSS VL: DIQLTQSPSFLSASVGDRVTITCRASSSVSYMHWYQQKPGKAPKLWIYNTSNLPSGVPSRFSGSGSGTEYTLTISSLQPEDFATYYCQQRSSYPLTFGGGTKVEIKR ... 15.6

Please examine the following record next.
Asked: What % of cells CD45RC+ value was documented for this binder, Anti-45RC Variant A3 (antibody, human IgG1, kappa, V domains shown) VH: QVQLVQSGAEVKKPGASVKVSCKASGYTFTNYYIGWVRQAPGQGLEWIGDIFPGGGYTNYAEKFQGRVTLTADTSISTAYMELSRLRSDDTVVYYCVRRNFDYWGQGTLVTVSS VL: DIQLTQSPSFLSASVGDRVTITCRASSSVSYMHWYQQKPGKAPKLWIYNTSNLPSGVPSRFSGSGSGTEYTLTISSLQPEDFATYYCQQRSSYPLTFGGGTKVEIKR ?
Given back: 15.2
